Where do the numbers come from? From patent US20260242360A1.

Catalogue of IC50 readings, one per entry.
- Tested on: transcription factor TEAD
- TEST METHOD NOTES: Activity inhibition test of transcription factor TEAD (ONE-Glo luciferase assay, Hippo Pathway TEAD reporter-MCF7 cell line)
- Type: cell-based
- EXPERIMENTAL CONDITIONS: Homo sapiens; TEAD Reporter-MCF7 cells, 24 hours treatment, luciferase luminescence
MEASURED PROPERTY: IC50 (nM)

COMPOUND STRUCTURE	UNITS SYMBOL	NUMERIC VALUE
C=CC(=O)Nc1cc(-c2ccn(C)n2)c2[nH]c(-c3ccc(Cl)cc3)cc2c1	nM	15
Cn1cnc(-c2cc(C(=O)O)cc3cc(-c4ccc(Cl)cc4)[nH]c23)c1	nM	26
C=CC(=O)Nc1cc(-c2ccccn2)c2[nH]c(-c3ccc(Cl)c(Cl)c3)cc2c1	nM	126
Cn1cnc(-c2cc(C(=O)O)cc3cc(-c4ccc(F)cc4)[nH]c23)c1	nM	100
C=CC(=O)Nc1cc(-c2ccn(C)n2)c2[nH]c(-c3ccc(F)cc3)cc2c1	nM	23
C=CC(=O)Nc1cc(-c2cn(C)cn2)c2[nH]c(-c3ccc(Cl)cc3)cc2c1	nM	9.4
C=CC(=O)Nc1cc(-c2cn(C)cn2)c2[nH]c(-c3cc(F)c(Cl)c(F)c3)cc2c1	nM	90
C=CC(=O)Nc1cc(-c2cn(CC)cn2)c2[nH]c(-c3cc(F)c(F)c(F)c3)cc2c1	nM	27
C=CC(=O)Nc1cc(-c2cn(C)cn2)c2[nH]c(C3=CCCCC3)cc2c1	nM	46
C=CC(=O)Nc1cc(-c2cn(C)cn2)c2[nH]c(-c3ccc(Cl)c(Cl)c3)cc2c1	nM	110
C=CC(=O)Nc1cc(-c2cn(C)cn2)c2[nH]c(-c3ccccc3)cc2c1	nM	30
C=CC(=O)Nc1cc(-c2cn(C)cn2)c2[nH]c(-c3cccc(F)c3)cc2c1	nM	97

====

Each entry below lists one item and its recorded pIC50 value.
- Tested on: transcription factor TEAD
- TEST METHOD NOTES: Activity inhibition test of transcription factor TEAD (ONE-Glo luciferase assay, Hippo Pathway TEAD reporter-MCF7 cell line)
- Assay type: cell-based
- EXPERIMENTAL CONDITIONS: Homo sapiens; TEAD Reporter-MCF7 cells, 24 hours treatment, luciferase luminescence
pIC50: −log10 of the molar value.

COMPOUND STRUCTURE	ASSAYED SYSTEM	pIC50
C=CC(=O)Nc1cc(-c2ccccn2)c2[nH]c(-c3ccc(F)cc3)cc2c1	transcription factor TEAD	7.52
Cn1cnc(-c2cc(NS(C)(=O)=O)cc3cc(-c4cccc(C(F)(F)F)c4)[nH]c23)c1	transcription factor TEAD	6.72
C=CC(=O)Nc1cc(-c2cn(C)cn2)c2[nH]c(-c3ccc(F)c(F)c3)cc2c1	transcription factor TEAD	7.70
Cn1cnc(-c2cc(C(=O)O)cc3cc(-c4ccc(Cl)c(F)c4)[nH]c23)c1	transcription factor TEAD	7.44
C=CC(=O)Nc1cc(-c2cn(C)cn2)c2[nH]c(-c3ccc(F)cc3F)cc2c1	transcription factor TEAD	8.19
C=CC(=O)Nc1cc(-c2cn(C)cn2)c2[nH]c(-c3ccc(F)cc3)cc2c1	transcription factor TEAD	8.46
C=CC(=O)Nc1cc(-c2cn(C)cn2)c2[nH]c(-c3cccc(Cl)c3)cc2c1	transcription factor TEAD	7.22
C=CC(=O)Nc1cc(-c2cn(C)cn2)c2[nH]c(-c3ccc(Cl)cc3F)cc2c1	transcription factor TEAD	7.10
C=CC(=O)Nc1cc(-c2cn(CC)cn2)c2[nH]c(-c3ccc(F)cc3)cc2c1	transcription factor TEAD	7.32
C=CC(=O)Nc1cc(-c2cn(C)cn2)c2[nH]c(-c3ccc(F)c(Cl)c3)cc2c1	transcription factor TEAD	7.43
C=CC(=O)Nc1cc(-c2cn(C)cn2)c2[nH]c(-c3ccc(Br)cc3)cc2c1	transcription factor TEAD	6.46
C=CC(=O)Nc1cc(-c2cn(C)cn2)c2[nH]c(-c3cc(F)c(F)c(F)c3)cc2c1	transcription factor TEAD	8.23
Cn1cnc(-c2cc(C(=O)O)cc3cc(-c4ccc(F)c(F)c4)[nH]c23)c1	transcription factor TEAD	7.27
C=CC(=O)Nc1cc(-c2cn(C)cn2)c2[nH]c(-c3ccc(F)c(C)c3)cc2c1	transcription factor TEAD	7.31
C=CC(=O)Nc1cc(-c2cn(C)cn2)c2[nH]c(-c3ccc(C(F)(F)F)cc3)cc2c1	transcription factor TEAD	7.41
C=CC(=O)Nc1cc(-c2ccn(C)n2)c2[nH]c(-c3ccc(F)cc3F)cc2c1	transcription factor TEAD	7.29
Cn1cnc(-c2cc(NS(C)(=O)=O)cc3cc(-c4ccc(Cl)cc4)[nH]c23)c1	transcription factor TEAD	6.63
